Target: LIPY (Mycobacterium tuberculosis, UniProt I6Y2J4)
Construct: The 24 open-reading frames (ORFs) were amplified from the genomic DNA of M. tuberculosis H37Rv; 6xHis (pET200 D-TOPO N-terminal fusion) (N); made in house; host or cells: E. coli BL21 Star (DE3)
Sequence (I6Y2J4 whole entry, the tested form may be a part): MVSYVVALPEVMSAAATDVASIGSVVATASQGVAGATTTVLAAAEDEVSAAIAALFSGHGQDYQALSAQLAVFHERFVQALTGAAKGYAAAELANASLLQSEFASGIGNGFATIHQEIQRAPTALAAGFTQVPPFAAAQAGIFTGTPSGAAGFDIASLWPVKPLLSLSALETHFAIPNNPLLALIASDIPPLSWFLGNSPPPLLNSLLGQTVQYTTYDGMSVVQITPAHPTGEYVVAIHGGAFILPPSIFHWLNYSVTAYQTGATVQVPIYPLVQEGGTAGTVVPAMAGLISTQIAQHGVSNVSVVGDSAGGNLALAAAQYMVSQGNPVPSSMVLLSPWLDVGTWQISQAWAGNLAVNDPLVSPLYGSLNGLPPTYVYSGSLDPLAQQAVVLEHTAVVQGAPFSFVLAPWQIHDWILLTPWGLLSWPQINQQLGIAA
Assay type: biochemical
PARAMETER: Effect of salt on LIPY activity (in words)

COMPOUND	TARGET_OR_TEST_SYSTEM	EXPERIMENTAL_VALUE
[Cl-].[Cl-].[Zn+2]	LIPY (Mycobacterium tuberculosis, UniProt I6Y2J4)	inhibited the activity
[Cl-].[Na+]	LIPY (Mycobacterium tuberculosis, UniProt I6Y2J4)	enhanced the activity
[Cl-].[K+]	LIPY (Mycobacterium tuberculosis, UniProt I6Y2J4)	enhanced the activity
[Cl][Mn][Cl]	LIPY (Mycobacterium tuberculosis, UniProt I6Y2J4)	inhibited the activity
CC(=O)[O-].[Na+] [CH3COO.Na, sodium acetate]	LIPY (Mycobacterium tuberculosis, UniProt I6Y2J4)	enhanced the activity
[Cl-].[Cl-].[Co+2]	LIPY (Mycobacterium tuberculosis, UniProt I6Y2J4)	inhibited the activity
[Cl-].[Cl-].[Mg+2]	LIPY (Mycobacterium tuberculosis, UniProt I6Y2J4)	inhibited the activity
CC(=O)[O-].[K+] [CH3COO.K, potassium acetate]	LIPY (Mycobacterium tuberculosis, UniProt I6Y2J4)	enhanced the activity

Source: patent US7601357B2
